# Tested on: L1210 leukemia ip in BDF1 mice, survival T/C
# measurement protocol: NCI In Vivo Anticancer Drug Screen. Data for tumor model L1210 Leukemia (intraperitoneal) in B6D2F1 (BDF1) mice
# condition info: endpoint: mean survival time; dose: 100.0 mg/kg/injection; schedule: Q04DX002 (ip); vehicle: saline; higher = longer survival
Toxic doses and inconclusive results are not listed.
metric name: T/C

[
  {
    "molecule": "C1CCC2CCCCC2C1 (stereo unspecified)",
    "result value": "91 % of control"
  },
  {
    "molecule": "O=C(NCCCCCCNC(=O)N(Cc1ccccc1)Cc1ccccc1)N(Cc1ccccc1)Cc1ccccc1",
    "result value": "105 % of control"
  },
  {
    "molecule": "C1[CH2][Hg][CH2]CO1",
    "result value": "100 % of control"
  },
  {
    "molecule": "CC1(C)N=C(SCC(=O)c2ccccc2)NC1(C)C",
    "result value": "101 % of control"
  },
  {
    "molecule": "CCCCCNCCC[P+](c1ccccc1)(c1ccccc1)c1ccccc1",
    "result value": "119 % of control"
  },
  {
    "molecule": "Cn1c(C=O)cc2ccccc21",
    "result value": "110 % of control"
  },
  {
    "molecule": "CCOC(=O)c1c(N)sc2c1CCC2",
    "result value": "93 % of control"
  },
  {
    "molecule": "CCN(CC)C(=O)C1CC=CCC1 (stereo unspecified)",
    "result value": "96 % of control"
  },
  {
    "molecule": "O=COC1CC2CCC1C2 (stereo unspecified)",
    "result value": "95 % of control"
  },
  {
    "molecule": "CCOC(=O)/C(C#N)=C/c1cccn1Cc1ccc2c(c1)OCO2",
    "result value": "105 % of control"
  },
  {
    "molecule": "CCOC(=O)/C=C\\SCC(=O)OCC",
    "result value": "104 % of control"
  }
]
